Numbers sourced from patent US10745346B2.

- Tested on: PLC5 cells (a hepatocellular carcinoma cell line)
- PROTOCOL DETAILS: Cytotoxicity, MTT cell viability assay
- Assay type: cell-based
- RUN PARAMETERS: 72 h exposure
pIC50: −log10 of the molar value.
Please note: 1 applies when pIC50 is 6 or greater, and 0 applies otherwise.

# SMILES STRUCTURE, GROUP LABEL
data = [
    ("N#Cc1ccc(Oc2ccc(NC(=O)Nc3ccc(Cl)c(C(F)(F)F)c3)c(F)c2)cc1Cl", 0),
]

Query: Entry N#Cc1ccc(Oc2cccc(NC(=O)Nc3ccc(Cl)c(C(F)(F)F)c3)c2)c(F)c1 : is its pIC50 no less than 6?
Result: 0

Query: Entry N#Cc1ccc(Oc2ccc3c(c2)N(C(=O)Nc2cccc(C(F)(F)F)c2)CCO3)cc1 : is its pIC50 no less than 6?
Result: 0

Query: Entry N#Cc1ccc(Oc2ccc(F)c(NC(=O)Nc3ccc(Cl)c(C(F)(F)F)c3)c2)cc1 : is its pIC50 no less than 6?
Result: 1

Query: Entry N#CCc1ccc(NC(=O)N2CCOc3ccc(Oc4ccc(C#N)cc4)cc32)cc1 : is its pIC50 no less than 6?
Result: 0

Query: Entry Cc1ccc(NC(=O)Nc2cc(Oc3ccc(C#N)cc3)ccc2F)cc1Oc1ccc(C#N)nc1 : is its pIC50 no less than 6?
Result: 0

Query: Entry Cc1ccc(NC(=O)Nc2ccc(F)c(C(F)(F)F)c2)cc1Oc1ccc(C#N)cc1 : is its pIC50 no less than 6?
Result: 1

Query: Entry N#Cc1ccc(Oc2ccc3c(c2)OCCN3C(=O)Nc2ccc(Cl)c(C(F)(F)F)c2)cc1 : is its pIC50 no less than 6?
Result: 0

Query: Entry Cc1ccc(NC(=O)Nc2ccc(C)c(Oc3cnc(C#N)c(F)c3)c2)cc1Oc1cnc(C#N)c(F)c1 : is its pIC50 no less than 6?
Result: 0

Query: Entry Cc1ccc(NC(=O)Nc2ccc(C)c(Oc3ccc(C#N)c4ccccc34)c2)cc1Oc1ccc(C#N)c2ccccc12 : is its pIC50 no less than 6?
Result: 0

Query: Entry N#Cc1ccc(Oc2cc(NC(=O)Nc3cccc(C(F)(F)F)c3)ccc2Cl)cc1 : is its pIC50 no less than 6?
Result: 1

Query: Entry C#Cc1cccc(NC(=O)Nc2ccc(Oc3ccc(CC#N)cc3)cc2)c1 : is its pIC50 no less than 6?
Result: 0

Query: Entry N#Cc1ccc(Oc2cc(NC(=O)Nc3cc(C(F)(F)F)cc(C(F)(F)F)c3)ccc2F)cc1 : is its pIC50 no less than 6?
Result: 1

Query: Entry N#Cc1ccc(Oc2cccc(NC(=O)C(=O)Nc3ccc(Cl)c(C(F)(F)F)c3)c2)cc1 : is its pIC50 no less than 6?
Result: 0
